Where do the numbers come from? From the supplement of paper PMC4894684.

Test system: HFF
Experiment: uninfected host cell viability relative to vehicle control; higher = less host cell toxicity
Conditions: 5 µM; 72 h; oxygen 21 %
Structures can show the parent of a compound that is named as a salt. Hit rate of the full screen: of about 1,000 compounds, about 15 (2%) showed an effect of 50% or more. What follows is part of a selection rich in strong results, with near analogues and random picks from the rest.
uninfected host cell viability reference
REPORTED ENDPOINT: uninfected host cell viability (%)

[[record]]
molecule = "O=C(c1ccc(F)cc1)C1CCN(CCn2c(=S)[nH]c3ccccc3c2=O)CC1 [Altanserin hydrochloride]"
units_label = "%"
observed_result = 83.2

[[record]]
molecule = "N[C@H](C(=O)O)c1ccc(O)c(C(=O)O)c1 [(S)-3-Carboxy-4-hydroxyphenylglycine]"
units_label = "%"
observed_result = 83.1

[[record]]
molecule = "COC(=O)/C=C/c1cccc(N(Cc2ccc(-c3ccc(N(C)C)cc3)cc2)C(=O)C2CCCCC2)c1"
units_label = "%"
observed_result = 96

[[record]]
molecule = "CCCCC[C@H](O)/C=C/[C@H]1[C@H](O)CC(=O)[C@@H]1CCCCCCC(=O)O"
units_label = "%"
observed_result = 91.7


====

uninfected host cell viability reference
Tested on: HFF
Assay: uninfected host cell viability relative to vehicle control; higher = less host cell toxicity
Conditions: 5 µM; 72 h; oxygen 21 %
Structures can show the parent of a compound that is named as a salt. The whole screen tested about 1,000 compounds, of which about 15 (2%) showed an effect of 50% or more. What follows is part of a selection rich in strong results, with near analogues and random picks from the rest.
REPORTED ENDPOINT: uninfected host cell viability (%)

[[record]]
molecule = "COc1ccc(-c2nc(-c3ccc(-c4cccc(Cl)c4)o3)[nH]c2-c2ccc(OC)cc2)cc1 [Neurodazine]"
experimental_target = "HFF"
reported_endpoint = "uninfected host cell viability"
observed_result = 80.3

[[record]]
molecule = "O=C1C(Cl)=C(NCCN2CCOCC2)C(=O)c2ncccc21"
experimental_target = "HFF"
reported_endpoint = "uninfected host cell viability"
observed_result = 34.4

[[record]]
molecule = "O=C1c2ccccc2S(=O)(=O)N1CCCCN1CCN(c2ncccn2)CC1 [Ipsapirone]"
experimental_target = "HFF"
reported_endpoint = "uninfected host cell viability"
observed_result = 87

[[record]]
molecule = "CCOCC(O)COc1ccc(NC(=O)CC[S+](C)C)cc1 (stereo not given) [Suplatast tosylate]"
experimental_target = "HFF"
reported_endpoint = "uninfected host cell viability"
observed_result = 97.7

[[record]]
molecule = "CCCCC1CCC(c2nc(-c3ccncc3)no2)CC1 (stereo not given)"
experimental_target = "HFF"
reported_endpoint = "uninfected host cell viability"
observed_result = 102

[[record]]
molecule = "CCN(CC)c1ccc(/C=N/NC(=O)c2ccc(O)cc2)cc1"
experimental_target = "HFF"
reported_endpoint = "uninfected host cell viability"
observed_result = 86.7

[[record]]
molecule = "c1ccc(N2CCN(CCCOc3ccc4c(c3)OCO4)CC2)cc1 [BP 554 maleate]"
experimental_target = "HFF"
reported_endpoint = "uninfected host cell viability"
observed_result = 90.9

[[record]]
molecule = "NCCNC(=O)c1ccc(Cl)cn1 [Lazabemide hydrochloride]"
experimental_target = "HFF"
reported_endpoint = "uninfected host cell viability"
observed_result = 94.7

[[record]]
molecule = "O=C1NN(C(=O)Nc2ccc(Br)cc2)[C@@H](c2ccccc2)[C@@H]1c1ccccc1"
experimental_target = "HFF"
reported_endpoint = "uninfected host cell viability"
observed_result = 91.7

[[record]]
molecule = "c1nc(CC2CCNCC2)c[nH]1 [Immepip dihydrobromide]"
experimental_target = "HFF"
reported_endpoint = "uninfected host cell viability"
observed_result = 81.5

